# STUDY_SYSTEM: BuChE (EC 3.1.1.8) from horse serum (Equus caballus)
# Construct: BuChE (EC 3.1.1.8, from equine serum, C0663); purchased Sigma-Aldrich C0663; host or cells: equine serum (natural source)
# Sequence (P81908 whole entry): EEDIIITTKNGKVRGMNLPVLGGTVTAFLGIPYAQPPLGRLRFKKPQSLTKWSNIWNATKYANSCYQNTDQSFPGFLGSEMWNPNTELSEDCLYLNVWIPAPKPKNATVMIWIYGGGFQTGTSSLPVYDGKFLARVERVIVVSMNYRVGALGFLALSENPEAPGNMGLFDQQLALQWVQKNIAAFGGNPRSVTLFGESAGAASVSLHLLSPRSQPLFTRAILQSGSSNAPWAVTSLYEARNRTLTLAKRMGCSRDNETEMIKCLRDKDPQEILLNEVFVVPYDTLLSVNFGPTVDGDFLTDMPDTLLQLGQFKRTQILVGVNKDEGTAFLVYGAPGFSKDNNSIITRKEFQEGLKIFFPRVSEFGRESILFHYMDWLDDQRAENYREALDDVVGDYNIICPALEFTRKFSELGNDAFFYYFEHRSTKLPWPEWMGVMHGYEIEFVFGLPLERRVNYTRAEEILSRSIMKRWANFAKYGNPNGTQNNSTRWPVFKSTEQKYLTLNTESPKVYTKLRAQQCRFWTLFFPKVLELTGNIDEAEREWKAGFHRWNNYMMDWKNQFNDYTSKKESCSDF
# TEST_PROTOCOL: biochemical
# ASSAY_SETUP: eqBuChE, mean ± SEM of triplicate independent experiments
For each record, check the reported IC50: if it is below 100 nM write Yes, else write No.

The examples below pair each entry with its known result.
> print(dat)
                                   compound  class.label
1  COc1cc(/C=C/C(=O)NCCNc2c3c(nc4ccccc24)CCCC3)ccc1OCc1ccc(C(F)(F)F)cc1 [Compound 10k]          Yes
2  COc1cc(/C=C/C(=O)NCCNc2c3c(nc4ccccc24)CCCC3)ccc1OCc1ccc(Cl)cc1 [Compound 10c]          Yes
3  COc1cc(/C=C/C(=O)NCCNc2c3c(nc4ccccc24)CCCC3)ccc1OCc1ccc(F)cc1 [Compound 10b]           No
4  COc1cc(/C=C/C(=O)NCCNc2c3c(nc4ccccc24)CCCC3)ccc1OCc1cccc(C)c1 [Compound 10f]           No
5  COc1cc(/C=C/C(=O)NCCNc2c3c(nc4ccccc24)CCCC3)ccc1OCc1ccc(C#N)cc1 [Compound 10j]          Yes

Is the reported IC50 for COc1cc(/C=C/C(=O)NCCNc2c3c(nc4ccccc24)CCCC3)ccc1OCc1ccc(Br)cc1 [Compound 10d] strictly below 100 nM? Yes

And the next one, COc1ccc(COc2ccc(/C=C/C(=O)NCCNc3c4c(nc5ccccc35)CCCC4)cc2OC)cc1 [Compound 10m] ? No

And the next one, COc1cccc(COc2ccc(/C=C/C(=O)NCCNc3c4c(nc5ccccc35)CCCC4)cc2OC)c1 [Compound 10l] ? No

* * *

# STUDY_SYSTEM: AChE (EC 3.1.1.7) from electric eel (Electrophorus electricus)
# Construct: AChE (EC 3.1.1.7, Type VI-S, from electric eel, C3389); purchased Sigma-Aldrich C3389; host or cells: electric eel (natural source)
# Sequence (O42275 24-633): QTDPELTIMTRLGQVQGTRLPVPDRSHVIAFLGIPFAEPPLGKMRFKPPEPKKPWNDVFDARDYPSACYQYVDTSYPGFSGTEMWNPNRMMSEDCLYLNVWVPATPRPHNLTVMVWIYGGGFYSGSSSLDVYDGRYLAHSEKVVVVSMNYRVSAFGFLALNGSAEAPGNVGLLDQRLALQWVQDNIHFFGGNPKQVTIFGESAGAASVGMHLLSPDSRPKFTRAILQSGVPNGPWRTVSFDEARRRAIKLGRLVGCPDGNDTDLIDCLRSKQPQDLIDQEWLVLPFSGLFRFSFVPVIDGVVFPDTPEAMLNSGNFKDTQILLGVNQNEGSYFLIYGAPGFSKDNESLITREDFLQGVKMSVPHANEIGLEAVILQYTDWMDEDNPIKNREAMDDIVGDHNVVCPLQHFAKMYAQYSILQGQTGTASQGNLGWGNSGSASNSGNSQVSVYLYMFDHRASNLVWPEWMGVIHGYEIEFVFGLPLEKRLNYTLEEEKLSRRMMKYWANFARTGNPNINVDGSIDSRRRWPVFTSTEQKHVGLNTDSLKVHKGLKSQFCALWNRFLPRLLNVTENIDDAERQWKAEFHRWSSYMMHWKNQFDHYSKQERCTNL
# TEST_PROTOCOL: biochemical
# ASSAY_SETUP: eeAChE IC50 / eqBuChE IC50
QUANTITY_KIND: SI (selectivity index, AChE IC50/BuChE IC50)
Please state the value as a number alone, without comment.

Some solved cases for reference:
> print(dat)
                                   compound  quantitative.result
1  COc1cc(/C=C/C(=O)NCCNc2c3c(nc4ccccc24)CCCC3)ccc1OCc1ccc(C(F)(F)F)cc1 [Compound 10k]                  2.4
2  COc1cc(/C=C/C(=O)NCCNc2c3c(nc4ccccc24)CCCC3)ccc1OCc1ccc(C#N)cc1 [Compound 10j]                  1.3

Quick check: SI (selectivity index, AChE IC50/BuChE IC50) of COc1cc(/C=C/C(=O)NCCNc2c3c(nc4ccccc24)CCCC3)ccc1OCc1ccc(Cl)cc1 [Compound 10c] ? 1.6

And the next one, COc1cc(/C=C/C(=O)NCCNc2c3c(nc4ccccc24)CCCC3)ccc1OCc1cccc(C)c1 [Compound 10f] ? 0.2

And the next one, COc1ccc(COc2ccc(/C=C/C(=O)NCCNc3c4c(nc5ccccc35)CCCC4)cc2OC)cc1 [Compound 10m] ? 0.6

And the next one, COc1cccc(COc2ccc(/C=C/C(=O)NCCNc3c4c(nc5ccccc35)CCCC4)cc2OC)c1 [Compound 10l] ? 0.7

And the next one, COc1cc(/C=C/C(=O)NCCNc2c3c(nc4ccccc24)CCCC3)ccc1OCc1ccc(Br)cc1 [Compound 10d] ? 0.7

And the next one, COc1cc(/C=C/C(=O)NCCNc2c3c(nc4ccccc24)CCCC3)ccc1OCc1ccc(C(C)(C)C)cc1 [Compound 10i] ? 1.8
